Entry source: patent US20240327417A1

pIC50 values, listed per item
target: Full length DGKζ (in-house protein M1-V929) (Homo sapiens, UniProt Q13574); construct: His (N); TEV cleavage site (N); experiment: Biochemical DGK IC50 assay (ADP-Glo, lipid micelle substrate), DGKζ; details: 0.5 nM enzyme, 140 μM ATP, 80 μM DAG, 1 hour preincubation, 1 hour reaction, room temperature, read-out: IC50s for DGKζ
Sequence (Q13574 1-929 isoform Q13574-4): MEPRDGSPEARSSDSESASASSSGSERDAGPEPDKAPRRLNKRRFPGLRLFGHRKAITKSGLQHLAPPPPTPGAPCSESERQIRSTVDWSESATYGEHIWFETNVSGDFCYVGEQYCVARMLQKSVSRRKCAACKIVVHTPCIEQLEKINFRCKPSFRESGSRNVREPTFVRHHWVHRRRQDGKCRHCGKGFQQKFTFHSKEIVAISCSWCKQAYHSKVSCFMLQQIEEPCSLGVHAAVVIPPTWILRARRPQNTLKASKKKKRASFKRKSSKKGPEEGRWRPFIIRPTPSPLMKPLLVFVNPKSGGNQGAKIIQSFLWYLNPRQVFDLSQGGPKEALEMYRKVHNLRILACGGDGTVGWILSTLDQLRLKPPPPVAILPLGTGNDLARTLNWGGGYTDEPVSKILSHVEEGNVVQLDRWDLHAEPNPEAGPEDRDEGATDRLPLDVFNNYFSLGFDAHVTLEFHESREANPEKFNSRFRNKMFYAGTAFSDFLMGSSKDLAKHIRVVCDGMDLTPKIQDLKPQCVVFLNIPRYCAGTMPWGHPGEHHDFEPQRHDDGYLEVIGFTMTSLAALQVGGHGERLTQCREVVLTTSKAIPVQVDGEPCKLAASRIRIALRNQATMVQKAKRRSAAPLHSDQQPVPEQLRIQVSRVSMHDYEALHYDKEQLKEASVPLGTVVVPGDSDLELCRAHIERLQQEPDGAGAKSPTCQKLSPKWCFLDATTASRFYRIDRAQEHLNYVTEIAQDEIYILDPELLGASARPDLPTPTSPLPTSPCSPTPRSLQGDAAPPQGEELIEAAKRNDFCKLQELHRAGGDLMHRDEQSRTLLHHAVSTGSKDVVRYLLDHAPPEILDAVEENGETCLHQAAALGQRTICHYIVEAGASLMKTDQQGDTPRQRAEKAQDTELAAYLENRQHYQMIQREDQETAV
pIC50: −log10 of the molar value.
endpoint.label: pIC50

compound: [2H]C([2H])([2H])c1nc2ccc(C(C)N3C[C@H](CC)N(c4cc(=O)n(C([2H])([2H])[2H])n5cc(CC#N)nc45)C[C@H]3CC)cc2s1 (single isomer, unassigned) [Compound A97a]
obs.value: 7.62

compound: CC[C@H]1CN(C(C)c2cc3scnc3cc2F)[C@H](CC)CN1c1cc(=O)n(C)n2cc(CC#N)nc12 (single isomer, unassigned) [Compound A59a]
obs.value: 7.59

compound: Cc1cnc2ccc(C(C)N3C[C@H](C)N(c4c(C#N)c(=O)n(C)n5cc(CC#N)nc45)C[C@H]3C)cc2n1 (some centres unmarked)
obs.value: 7.41

compound: CC[C@H]1CN(C(C)c2ccc(C(C)(C)F)nc2)[C@H](CC)CN1c1cc(=O)n(C)n2cc(CC#N)nc12 (single isomer, unassigned) [Compound A46a]
obs.value: 8.19

compound: CC[C@@H]1CN(c2c(C#N)c(=O)n(C)n3cc(CC#N)nc23)[C@@H](C)CN1C(C)c1ccc(C2CC2)nc1 (single isomer, unassigned) [Compound A74a]
obs.value: 6.78

---

Biological target: Full length DGKζ (in-house protein M1-V929) (Homo sapiens, UniProt Q13574)
Construct: His (N); TEV cleavage site (N)
Test: Biochemical DGK IC50 assay (ADP-Glo, lipid micelle substrate), DGKζ
Conditions: 0.5 nM enzyme, 140 μM ATP, 80 μM DAG, 1 hour preincubation, 1 hour reaction, room temperature, read-out: IC50s for DGKζ
Method: Enzymatic reactions of DGKζ, DGKα and DGKδ were performed using ADP-Glo assay with lipid micelle substrate. […] Full length DGKα (D21-10BG, SignalChem) and full length DGKδ (D23-10G, SignalChem) were purchased. Lipid micelle was prepared by dissolving DAG (Sigma, 317505-10MG) and PS (Sigma, P7769-100MG) with chloroform which was firtherly removed by rotary evaporation. […]
pIC50: −log10 of the molar value.
// NO strictly below 7 in pIC50; YES otherwise

molecule: CC[C@@H]1CN(c2cc(=O)n(C)n3cc(CC#N)nc23)[C@@H](C)CN1C(C)c1ccc2nc(C)sc2n1 (single isomer, unassigned) [Compound A84a]
measured.on: Full length DGKζ (in-house protein M1-V929) (Homo sapiens, UniProt Q13574)
label.value: YES
//
molecule: CC[C@@H]1CN(c2cc(=O)n(C)n3cc(CC#N)nc23)[C@@H](C)CN1C(C)c1ccc2nc(C)sc2n1 (single isomer, unassigned) [Compound A84b]
measured.on: Full length DGKζ (in-house protein M1-V929) (Homo sapiens, UniProt Q13574)
label.value: NO
//
molecule: CC[C@H]1CN(C(C)c2ccc3nc(C)sc3n2)[C@H](CC)CN1c1c(F)c(=O)n(C)n2cc(CC#N)nc12 (single isomer, unassigned) [Compound A82b]
measured.on: Full length DGKζ (in-house protein M1-V929) (Homo sapiens, UniProt Q13574)
label.value: NO
//
molecule: [2H]C([2H])([2H])c1nc2ccc(C(C)N3C[C@H](CC)N(c4cc(=O)n(C)n5cc(CC#N)nc45)C[C@H]3CC)cc2s1 (single isomer, unassigned) [Compound A96a]
measured.on: Full length DGKζ (in-house protein M1-V929) (Homo sapiens, UniProt Q13574)
label.value: YES
//
molecule: CC[C@H]1CN(C(C)c2ccc3nc(C)sc3n2)[C@H](CC)CN1c1c(C#N)c(=O)n(C)n2cc(CC#N)nc12 (single isomer, unassigned) [Compound A112a]
measured.on: Full length DGKζ (in-house protein M1-V929) (Homo sapiens, UniProt Q13574)
label.value: NO
//
molecule: CC(c1ccc2c(c1)OCCO2)N1C[C@H](C)N(c2cc(=O)n(C)n3cc(CC#N)nc23)C[C@H]1C (stereo partly drawn)
measured.on: Full length DGKζ (in-house protein M1-V929) (Homo sapiens, UniProt Q13574)
label.value: NO
//
molecule: CC[C@@H]1CN(c2cc(=O)n(C)n3cc(C=NOC)nc23)[C@@H](C)CN1C(C)c1ccc2nccnc2c1 (single isomer, unassigned) [Compound A9c]
measured.on: Full length DGKζ (in-house protein M1-V929) (Homo sapiens, UniProt Q13574)
label.value: NO
//
molecule: CC#CCc1cn2c(n1)c(N1C[C@@H](CC)N(C(C)c3ccc4nc(C)sc4c3)C[C@@H]1C)cc(=O)n2C (stereo partly drawn)
measured.on: Full length DGKζ (in-house protein M1-V929) (Homo sapiens, UniProt Q13574)
label.value: NO
//
molecule: CC[C@H]1CN(C(C)c2ccc3scnc3c2)[C@H](CC)CN1c1cc(=O)n(C)n2cc(CC#N)nc12 (stereo partly drawn) [Compound A65]
measured.on: Full length DGKζ (in-house protein M1-V929) (Homo sapiens, UniProt Q13574)
label.value: YES
//
molecule: CCc1nc2ccc(C(C)N3C[C@H](C)N(c4cc(=O)n(C)n5cc(CC#N)nc45)C[C@H]3CC)cc2s1 (single isomer, unassigned) [Compound A101b]
measured.on: Full length DGKζ (in-house protein M1-V929) (Homo sapiens, UniProt Q13574)
label.value: NO
//
molecule: CC[C@H]1CN(C(C)c2ccc3nc(C)sc3c2)[C@H](CC)CN1c1cc(=O)n(C)n2cc(C=NOC)nc12 (single isomer, unassigned) [Compound A123d]
measured.on: Full length DGKζ (in-house protein M1-V929) (Homo sapiens, UniProt Q13574)
label.value: NO

---

Target: Full length DGKζ (in-house protein M1-V929) (Homo sapiens)
Construct: His (N); TEV cleavage site (N)
Assay: Biochemical DGK IC50 assay (ADP-Glo, lipid micelle substrate), DGKζ
Conditions: 0.5 nM enzyme, 140 μM ATP, 80 μM DAG, 1 hour preincubation, 1 hour reaction, room temperature, read-out: IC50s for DGKζ
Method: Enzymatic reactions of DGKζ, DGKα and DGKδ were performed using ADP-Glo assay with lipid micelle substrate. […] Full length DGKα (D21-10BG, SignalChem) and full length DGKδ (D23-10G, SignalChem) were purchased. Lipid micelle was prepared by dissolving DAG (Sigma, 317505-10MG) and PS (Sigma, P7769-100MG) with chloroform which was firtherly removed by rotary evaporation. […]
pIC50: −log10 of the molar value.

molecule: CC(c1ccc2c(c1)OC(C)(C)CO2)N1C[C@H](C)N(c2c(C#N)c(=O)n(C)n3cc(CC#N)nc23)C[C@H]1C (single isomer, unassigned) [Compound A27b]
pIC50: 6.24

molecule: [2H]C([2H])([2H])C(c1ccc2nc(C)sc2c1)N1C[C@H](CC)N(c2cc(=O)n(C([2H])([2H])[2H])n3cc(CC#N)nc23)C[C@H]1CC (single isomer, unassigned) [Compound A95a]
pIC50: 7.57

molecule: Cc1cnc2ccc(C(C)N3C[C@H](C)N(c4cc(=O)n(C)n5cc(CC#N)nc45)C[C@H]3C)cc2n1 (single isomer, unassigned) [Compound A2b]
pIC50: 7.96

---

Consider the following IC50 values measured on Full length DGKα (D21-10BG, SignalChem) (Homo sapiens).
Sequence (P23743 whole entry): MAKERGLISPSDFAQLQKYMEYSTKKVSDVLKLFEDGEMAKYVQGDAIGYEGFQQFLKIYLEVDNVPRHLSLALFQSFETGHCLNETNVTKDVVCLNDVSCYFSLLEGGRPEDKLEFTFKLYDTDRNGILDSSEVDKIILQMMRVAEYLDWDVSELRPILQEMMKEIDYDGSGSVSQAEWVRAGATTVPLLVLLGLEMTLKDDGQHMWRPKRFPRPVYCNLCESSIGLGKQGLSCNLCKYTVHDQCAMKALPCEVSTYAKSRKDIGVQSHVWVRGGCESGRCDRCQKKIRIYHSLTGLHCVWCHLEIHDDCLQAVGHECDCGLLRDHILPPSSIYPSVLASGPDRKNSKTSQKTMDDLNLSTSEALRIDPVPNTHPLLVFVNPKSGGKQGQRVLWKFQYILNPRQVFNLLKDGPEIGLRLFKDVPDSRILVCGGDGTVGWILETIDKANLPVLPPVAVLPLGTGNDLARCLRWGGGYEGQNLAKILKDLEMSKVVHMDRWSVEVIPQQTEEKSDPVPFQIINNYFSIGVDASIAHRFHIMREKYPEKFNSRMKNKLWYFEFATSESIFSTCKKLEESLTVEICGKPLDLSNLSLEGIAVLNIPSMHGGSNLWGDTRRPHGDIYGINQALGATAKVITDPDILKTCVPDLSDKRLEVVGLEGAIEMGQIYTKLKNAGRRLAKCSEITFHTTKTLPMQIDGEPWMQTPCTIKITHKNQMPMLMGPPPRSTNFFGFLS

compound: CCc1nc2ccc(C(C)N3C[C@H](CC)N(c4cc(=O)n(C)n5cc(CC#N)nc45)C[C@H]3CC)cc2s1 (single isomer, unassigned) [Compound A100a]
IC50 [nM]: 297
--
compound: CC[C@H]1CN(C(C)c2ccc3nc(CC4CC4)sc3n2)[C@H](CC)CN1c1cc(=O)n(C)n2cc(CC#N)nc12 (single isomer, unassigned) [Compound A110b]
IC50 [nM]: 61
--
compound: CC#CCc1cn2c(n1)c(N1C[C@@H](CC)N(C(C)c3ccc4ncsc4c3F)C[C@@H]1CC)cc(=O)n2C (single isomer, unassigned) [Compound A117b]
IC50 [nM]: 535
--
compound: CC#CCc1cn2c(n1)c(N1C[C@@H](CC)N(C(C)c3ccc4nc(C)sc4c3)C[C@@H]1CC)cc(=O)n2C (single isomer, unassigned) [Compound A68a]
IC50 [nM]: 26
--
compound: CC[C@H]1CN(C(C)c2ccc(C3CC3)nc2)[C@H](CC)CN1c1c(F)c(=O)n(C)n2cc(CC#N)nc12 (single isomer, unassigned) [Compound A73a]
IC50 [nM]: 177
--
compound: CC[C@H]1CN(C(C)c2ccc3ncsc3n2)[C@H](CC)CN1c1cc(=O)n(C)n2cc(CC#N)nc12 (single isomer, unassigned) [Compound A57b]
IC50 [nM]: 172
--
compound: CC[C@H]1CN(C(C)c2ccc3nc(C)sc3n2)[C@H](CC)CN1c1c(F)c(=O)n(C)n2cc(CC#N)nc12 (single isomer, unassigned) [Compound A82b]
IC50 [nM]: 233
--
compound: CC[C@H]1CN(C(C)c2ccc(C3CC3)nc2)[C@H](CC)CN1c1cc(=O)n(C)n2cc(CC#N)nc12 (single isomer, unassigned) [Compound A37b]
IC50 [nM]: 260
--
compound: CC[C@H]1CN(C(C)c2ccc3ncsc3c2)[C@H](CC)CN1c1cc(=O)n(C)n2cc(CC#N)nc12 (single isomer, unassigned) [Compound A53a]
IC50 [nM]: 11
--
compound: CC[C@H]1CN(C(C)c2ccc(C3CC3)nc2)[C@H](CC)CN1c1c(C#N)c(=O)n(C)n2cc(CC#N)nc12 (single isomer, unassigned) [Compound A75a]
IC50 [nM]: 420
--
compound: CC[C@H]1CN(C(C)c2ccc3nc(C)sc3n2)[C@H](CC)CN1c1c(Br)c(=O)n(C)n2cc(CC#N)nc12 (some centres unmarked)
IC50 [nM]: 42600
